tested on: SF-268 CNS; test: NCI-60 one-dose screen, 48 h (100 = growth as untreated, 0 = no growth, -100 = all killed); conditions: 10 µM unless noted
About 83,000 compounds went through this panel and 20% of them were active in at least one assay; those are over-represented in the sample as a whole. Calls of active or inactive are those of the source. The calls were made as follows: active = growth percent below 10; inactive = the rest.
propertyMeasured: growth

Some entries whose results are on file:
What value of measured growth is listed for C#C[C@]1(O)CC[C@H]2[C@@H]3CC=C4c5sc(NCc6ccccc6)nc5CC[C@]4(C)[C@H]3CC[C@@]21C ?
47.5% (inactive)

Now consider O=C1[C@H]2Cc3c([nH]c4ccccc34)[C@H](c3ccc(Br)cc3)N2C(=O)CN1C1CCN(CC2CCCCC2)CC1 .
66.8% (inactive)

Now consider N#Cc1nc(-c2ccccc2)oc1N1CCC(C2(C(F)(F)F)N=N2)CC1 .
101% (inactive)

Field: next molecule
What value of measured growth is listed for CCCCCCNC(=O)Oc1ccc(/C(=C(/C)c2ccc(OC)cc2)c2ccc(OCCN3CCCCCC3)cc2)cc1 ?
60.3% (inactive)

---

Test system: ACHN renal
Assay: NCI-60 one-dose screen, 48 h (100 = growth as untreated, 0 = no growth, -100 = all killed)
Settings: 10 µM unless noted
Method: Growth inhibition of the ACHN human tumor cell line is measured as a screen for anti-cancer activity. Cells are grown in 96 well plates and exposed to the test compound for 48 hours. Compounds are tested at a single concentration, which is 10^-5 M for most compounds. The reported endpoint is percent growth (GI% or GIPRCNT), where numbers from 0 - 100% represent growth inhibition, and numbers from -100% - 0 represent cell death. For example, a value of 40 represents 60% growth inhibition. […]
The panel holds about 83,000 compounds, 20% with a hit somewhere; the sample as a whole holds those more often.
Quick reference: growth of the listed items.
Hi! Could you send only the number? It should be in %, unit omitted.

Some entries whose results are on file:
What value of measured growth is listed for CCc1cc(OC(=O)N2CCN(CCC(C)(COC(C)(C)C)COC(C)(C)C)CC2)ccc1Nc1cc(-c2ccc(-n3cccn3)cc2)[nH]n1 ?
81

Now consider COc1ccc2[nH]cc(-c3nc(N)nnc3-c3cn(C)c4ccc(Br)cc34)c2c1 .
40.5

Now consider COc1ccc2c(c1)c(-c1nn3cc(-c4ccncc4)nc3s1)cn2C .
71.4

Now consider O=C(Nc1ccccc1)Nc1nc2ccc([N+](=O)[O-])cc2[nH]1 .
37.6

Now consider CCN(CC)c1ccc(/C=N/NC(=O)c2ccc(S(N)(=O)=O)cc2)cc1 .
14.6

Now consider CN1CCN(Cc2ccc(NC(=O)c3cncc(C#Cc4cnc5ccc(OCC(F)F)nn45)c3)cc2C(F)(F)F)CC1 .
-98.3

Now consider O=C1Nc2ccccc2/C1=C/c1ccc(OCC(=O)c2ccccc2)cc1 .
96.6

Now consider Brc1cccc(-c2cc(-c3ccc4c(c3)OC=CO4)[nH]n2)c1 .
43.7

Field: next compound
What value of measured growth is listed for CCOC(=O)c1c(N)c(C#N)cn1Cc1ccc(Cl)cc1Cl ?
87.4

---

test system: NCI-H460 lung; assay: NCI-60 one-dose screen, 48 h; settings: 10 µM unless noted
The panel holds about 83,000 compounds, 20% with a hit somewhere; the sample as a whole holds those more often. Calls of active or inactive are those of the source. Rule for the calls: active = growth percent below 10; inactive = the rest.
Permitted responses: 1 (active), 0 (inactive)

Recorded test call requested for O=S(=O)(NCCCNc1nccc(-c2[nH]c(-c3ccccc3)nc2-c2ccc(F)c(O)c2)n1)c1cccc2ccccc12
0

Now consider CS(=O)(=O)c1ccc(/C(=N/N=C(N)N)c2ccc(F)cc2)cc1 .
0

Now consider O=C(CCCCCCNC(=O)c1csc(Br)n1)NO .
0

Now consider C/C(=N\NC(=O)/C=C/CC(=O)O)c1nnn(-c2ccc([N+](=O)[O-])cc2)c1C .
0

Now consider Cc1ccc(-c2cc3nc(C(Cl)Cl)nc(-c4ccc(S(=O)(=O)N(C)C)cc4)n3n2)cc1 .
0

Now consider O=C1Nc2ccc(F)cc2/C1=C\C(=O)c1ccc(NS(=O)(=O)c2ccccc2)cc1 .
0

Below: the item to evaluate.
Recorded test call requested for C#Cc1nc(C(=O)NCCCCCCC(=O)NO)cs1
0

The measurements presented in this section are drawn from PubChem BioAssay (NCI).
